- target-under-test: human IRAK4 (Homo sapiens (Human), UniProt Q9NWZ3)
- Sequence (Q9NWZ3 whole entry): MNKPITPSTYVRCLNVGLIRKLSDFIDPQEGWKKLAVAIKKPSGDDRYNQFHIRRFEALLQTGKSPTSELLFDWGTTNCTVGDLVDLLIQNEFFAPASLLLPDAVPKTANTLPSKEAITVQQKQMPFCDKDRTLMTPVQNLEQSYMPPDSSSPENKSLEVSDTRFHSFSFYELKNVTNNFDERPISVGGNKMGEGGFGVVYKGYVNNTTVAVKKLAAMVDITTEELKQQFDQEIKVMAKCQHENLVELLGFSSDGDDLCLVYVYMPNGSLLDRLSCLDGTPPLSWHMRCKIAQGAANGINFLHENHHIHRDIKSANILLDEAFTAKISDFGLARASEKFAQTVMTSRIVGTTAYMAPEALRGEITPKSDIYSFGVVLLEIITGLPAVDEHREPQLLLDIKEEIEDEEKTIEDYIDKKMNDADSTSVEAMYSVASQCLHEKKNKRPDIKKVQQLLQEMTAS
- test-method-notes: IRAK4 kinase inhibition, Transcreener fluorescence polarization ADP assay
- setup-conditions: recombinant full-length His6-IRAK4; 125 uM ATP; 90 min; Ki computed using ATP Km 642 uM
outcome-measure: Ki (nM)

Answered cases to consult:
compound: CC(C)(N)CN1CCN(c2cc3c(cc2NC(=O)c2cnn4cccnc24)CC(C)(C)O3)CC1
Ki / nM: 33

compound: CC(C)(O)C(F)(F)CN1Cc2cc(NC(=O)c3cnn4cccnc34)c(N3CCOCC3)cc2C1=O
Ki / nM: 9.7

compound: CC1(C)Cc2cc(NC(=O)c3cnn4cccnc34)c(N3CCc4cncn4CC3)cc2O1
Ki / nM: 32

compound: CP(C)(=O)c1ccc(NC(=O)c2cnn3cccnc23)c(N2CCOCC2)c1
Ki / nM: 130

1: C[C@]1(O)COc2cc(N3CCN(CC(N)=O)CC3)c(NC(=O)c3cnn4cccnc34)cc2C1
2: C[C@@]1(CO)Cc2cc(NC(=O)c3cnn4cc(Cl)cnc34)c(N3CCOCC3)cc2O1
Request: Returns: the label, 1 or 2 , whose recorded Ki is the lower number. State the label of the item chosen.
Result: 1

I: CC1(C)Cc2cc(NC(=O)c3cnn4cccnc34)c(N3CC[N+](C)(CC(N)=O)CC3)cc2O1
II: CC(C)(O)[C@]1(C)Cc2cc(NC(=O)c3cnn4cccnc34)c(N3CCN(CC(F)F)CC3)cc2O1
Request: When their Ki values are compared, which is larger, I or II ? State the label of the item chosen.
Result: I

P: CC1(C)Cc2cc(NC(=O)c3cnn4cccnc34)c(N3CC4C(C3)C4(F)F)cc2O1 (stereo not drawn)
Q: CC1(C)Cc2cc(NC(=O)c3cnn4cccnc34)c(OC[C@@H]3CCC(=O)N3)cc2O1
R: O=C(Nc1cc2c(cc1N1CCOCC1)C(=O)N(C[C@H]1C[C@H](O)C1)C2)c1cnn2cccnc12
Request: Put the items in sequence by Ki, from largest down. Use the labels to give the requested order.
Result: Q, P, R
(Q: 190 nM, P: 78 nM, R: 10 nM)

P: CN1CC[C@@H](N2Cc3cc(NC(=O)c4cnn5cccnc45)c(N4CCOCC4)cc3C2=O)C1=O
Q: C[C@]1(CO)Cc2cc(NC(=O)c3cnn4cccnc34)c(OC(F)(F)F)cc2O1
Request: When their Ki values are compared, which is larger, P or Q ? State the label of the item chosen.
Result: P
(P: 58 nM, Q: 38 nM)

A: CC1(CO)Cc2cc(NC(=O)c3cnn4cc(C(F)F)cnc34)c(N3CCOCC3)cc2O1 (stereo not drawn)
B: CN(C)C(=O)C1(C)Cc2cc(NC(=O)c3cnn4cccnc34)c(N3CCOCC3)cc2O1 (stereo not drawn)
C: CC[C@]1(C)Cc2cc(NC(=O)c3cnn4cccnc34)c(N3CCOCC3)cc2O1 (single isomer, unassigned)
Request: Put the items in sequence by Ki, from largest down. Use the labels to give the requested order.
Result: A, B, C

I: C[C@]1(CO)Cc2cc(NC(=O)c3cnn4cccnc34)c(N3C[C@@H]4[C@H](C3)[C@H]4C(N)=O)cc2O1
II: CC1(C)Cc2cc(NC(=O)c3cnn4cccnc34)c(N3Cc4cn[nH]c4C3)cc2O1
Request: Returns: the label, I or II , whose recorded Ki is the lower number. State the label of the item chosen.
Result: II

###

- target-under-test: UniProt:Q9NWZ3
- test-method-notes: IRAK4 kinase inhibition, Transcreener fluorescence polarization ADP assay
- setup-conditions: recombinant full-length His6-IRAK4; 125 uM ATP; 90 min; Ki computed using ATP Km 642 uM
pKi: −log10 of the molar value.
outcome-measure: pKi

Answered cases to consult:
compound: CNc1cnc2c(C(=O)Nc3cc4c(cc3N3CCN(CC(F)F)CC3)OC3(CCOCC3)C4)cnn2c1
pKi: 8.12
//
compound: CNC(=O)C1CC1c1cc2c(cc1NC(=O)c1cnn3cccnc13)CC(C)(C)O2 (centres unmarked)
pKi: 6.47

1: O=C(Nc1cc2c(cc1N1CCOCC1)OC1(CCNC1)C2)c1cnn2cccnc12 (centres unmarked)
2: CC(C)(O)[C@]1(C)Cc2cc(NC(=O)c3cnn4cccnc34)c(O[C@H]3CC[C@@H](O)CC3)cc2O1
Request: When their pKi values are compared, which is larger, 1 or 2 ? State the label of the item chosen.
Result: 1

P: C[C@H](O)[C@@H](F)CN1Cc2cc(NC(=O)c3cnn4cccnc34)c(N3CCOCC3)cc2C1=O
Q: CC1(C)CN(c2cc3c(cc2NC(=O)c2cnn4cccnc24)C[C@](C)(CO)O3)CCO1
R: CC1(C)Cc2cc(NC(=O)c3cnn4cccnc34)c(N3CCN(CCn4cccn4)CC3)cc2O1
Request: Put the items in sequence by pKi, from largest down. Use the labels to give the requested order.
Result: R, P, Q

###

- target-under-test: human IRAK4 (Homo sapiens (Human), UniProt Q9NWZ3)
- test-method-notes: IRAK4 kinase inhibition, Transcreener fluorescence polarization ADP assay
- setup-conditions: recombinant full-length His6-IRAK4; 125 uM ATP; 90 min; Ki computed using ATP Km 642 uM
outcome-measure: Ki (nM)

Answered cases to consult:
record-smiles: C[C@@]1(CO)Cc2cc(NC(=O)c3cnn4cccnc34)c(N3C[C@H]4C[C@@H]3CO4)cc2O1
unit-abbreviation: nM
reported-measurement: 130
--
record-smiles: Cn1ccnc1-c1cc2c(cc1NC(=O)c1cnn3cccnc13)CC(C)(C)O2
unit-abbreviation: nM
reported-measurement: 150

P: CNC(=O)[C@@]1(C)Cc2cc(NC(=O)c3cnn4cccnc34)c(N3CCOCC3)cc2O1
Q: C[C@@]1(CO)Cc2cc(NC(=O)c3cnn4cc(F)cnc34)c(N3CCN(CC(F)F)CC3)cc2O1
Request: When their Ki values are compared, which is larger, P or Q ? State the label of the item chosen.
Result: P

###

- target-under-test: human IRAK4 (Homo sapiens (Human), UniProt Q9NWZ3)
- test-method-notes: IRAK4 kinase inhibition, Transcreener fluorescence polarization ADP assay
- Format: biochemical
- setup-conditions: recombinant full-length His6-IRAK4; 125 uM ATP; 90 min; Ki computed using ATP Km 642 uM
outcome-measure: Ki (nM)

molecule: CC1(C)Cc2cc(NC(=O)c3cnn4cccnc34)c(OCC(F)F)cc2O1
unit-abbreviation: nM
reported-measurement: 11

molecule: O=C(Nc1cc2c(cc1N1CCOCC1)OC1(CCN(CCO)CC1)C2)c1cnn2cccnc12
unit-abbreviation: nM
reported-measurement: 6.8

molecule: CC1(CO)Cc2cc(NC(=O)c3cnn4cccnc34)c(N3CCC(n4ccnc4)CC3)cc2O1 (single isomer, unassigned) [Example 344]
unit-abbreviation: nM
reported-measurement: 8

molecule: CC(C)(O)[C@H](F)CN1Cc2cc(NC(=O)c3cnn4cccnc34)c(OCC3CC3)cc2C1=O
unit-abbreviation: nM
reported-measurement: 0.83

molecule: CC(C)(O)C1(C)Cc2cc(NC(=O)c3cnn4cccnc34)c(N3CCN(CC(N)=O)CC3)cc2O1 (stereo not drawn)
unit-abbreviation: nM
reported-measurement: 4

P: CC(C)N1Cc2cc(NC(=O)c3cnn4ccc(C(F)F)nc34)c(N3CCOCC3)cc2C1=O
Q: CC(C)(O)[C@@]1(C)Cc2cc(NC(=O)c3cnn4cccnc34)c(N3CCN(CC(F)F)CC3)cc2O1
Request: When their Ki values are compared, which is larger, P or Q ? State the label of the item chosen.
Result: P
(P: 350 nM, Q: 6.3 nM)

1: COCC1(C)Cc2cc(NC(=O)c3cnn4cccnc34)c(N3CCOCC3)cc2O1 (stereo not drawn)
2: C[C@]1(CO)Cc2cc(NC(=O)c3cnn4cccnc34)c(N3CCC4(CCOC4)CC3)cc2O1
Request: When their Ki values are compared, which is larger, 1 or 2 ? State the label of the item chosen.
Result: 1
(1: 10 nM, 2: 5 nM)

A: Cc1cnc2c(C(=O)Nc3cc4c(cc3N3CCOCC3)O[C@](C)(CO)C4)cnn2c1
B: CC1(C)Cc2cc(NC(=O)c3cnn4cccnc34)c(N3CC[C@H](CO)C3)cc2O1
Request: When their Ki values are compared, which is larger, A or B ? State the label of the item chosen.
Result: A

I: CNC(=O)[C@H]1[C@@H]2CN(c3cc4c(cc3NC(=O)c3cnn5cccnc35)CC(C)(C)O4)C[C@@H]21
II: C[C@@]1(CO)Cc2cc(NC(=O)c3cnn4cccnc34)c(N3C[C@@H]4[C@H](C3)[C@H]4C(N)=O)cc2O1
Request: Returns: the label, I or II , whose recorded Ki is the lower number. State the label of the item chosen.
Result: II

A: CCN1CCC2(CC1)Cc1cc(NC(=O)c3cnn4cccnc34)c(N3CCOCC3)cc1O2
B: O=C(Nc1cc2c(cc1N1CCOCC1)OCCCN2)c1cnn2cccnc12
C: CC(C)(O)[C@]1(C)Cc2cc(NC(=O)c3cnn4cccnc34)c(N3CCC(CO)CC3)cc2O1
D: C[C@]1(CO)Cc2cc(NC(=O)c3cnn4cc(Cl)cnc34)c(N3CCOCC3)cc2O1 (single isomer, unassigned)
E: C[C@@]1(CO)Cc2cc(NC(=O)c3cnn4cccnc34)c(N3CCC(F)(CO)CC3)cc2O1 (single isomer, unassigned)
Request: Put the items in sequence by Ki, from largest down. Use the labels to give the requested order.
Result: B, D, A, C, E

I: CC(C)(O)[C@@]1(C)Cc2cc(NC(=O)c3cnn4cccnc34)c(N3CCN(CC(N)=O)CC3)cc2O1
II: O=C(Nc1cc2c(cc1N1CCN(CC(F)F)CC1)C(=O)N(CC(F)(F)F)C2)c1cnn2cccnc12
III: CC(C)(O)[C@H](F)CN1Cc2cc(NC(=O)c3cnn4cccnc34)c(N3CCC(F)(F)C3)cc2C1=O
IV: CN(C)C(=O)[C@@]1(C)Cc2cc(NC(=O)c3cnn4cccnc34)c(N3CCOCC3)cc2O1
Request: In this exercise, place the 4 molecules in ascending sequence of their recorded Ki. Use the labels to give the requested order.
Result: III, I, II, IV
(III: 2 nM, I: 4.2 nM, II: 9 nM, IV: 34 nM)

A: CC1(C)Cc2cc(NC(=O)c3cnn4cccnc34)c(N3CCN(CC(N)=O)CC3)cc2O1
B: CC1(C)Cc2cc(NC(=O)c3cnn4cccnc34)c(N3C[C@@H]4[C@H](C3)[C@H]4C(N)=O)cc2O1
Request: When their Ki values are compared, which is larger, A or B ? State the label of the item chosen.
Result: B

P: COC1C2CCC1N(c1cc3c(cc1NC(=O)c1cnn4cccnc14)CC(C)(C)O3)C2 (stereo not drawn)
Q: CC1(C)Cc2cc(NC(=O)c3cnn4cccnc34)c(N3CCC(S(N)(=O)=O)C3)cc2O1 (stereo not drawn)
Request: Returns: the label, P or Q , whose recorded Ki is the lower number. State the label of the item chosen.
Result: Q
(Q: 15 nM, P: 120 nM)
